target: human DLK (Homo sapiens (Human), UniProt Q12852); test: cell-based; settings: Table 2a; HEK293 cells, Dox-inducible human DLK, 5 h compound, p-cJun (Ser63); read-out: Avg Phospho-cJun Cell IC50
ASSAY_METRIC: pIC50
Conceptually, pIC50 converts a concentration in mol/L into minus its log10.

Request: What does the record list as pIC50 for Nc1ncc(-c2cn(C34CC(N5CCOCC5)(C3)C4)c(C3CC3)n2)cc1C(F)(F)F [Example 4] ?
Response: 6.44

---

biological target: human DLK (Homo sapiens (Human)); experiment: biochemical; format: binding; conditions: Table 2b DLK activity (global); read-out: Kd
Kindly supply the reported Kd values for the records listed here.
Hi! Could you send only the number? It should be in nM, unit omitted.

Request: What does the record list as Kd for Nc1ncc(-c2cn(C34CC(C3)C4)c(CO)n2)cc1C(F)(F)F [Example 58] ?
Response: 18

Request: What does the record list as Kd for CN1CCN(C23CC(n4cc(-c5cnc(N)c(OC(F)(F)F)c5)nc4CC4CC4)(C2)C3)CC1 [Example 72] ?
Response: 19

Request: What does the record list as Kd for Nc1ncc(-c2cn(C34CC(N5CCOCC5)(C3)C4)c([C@H](O)C(F)(F)F)n2)cc1OC(F)(F)F (single isomer, unassigned) [Example 8a] ?
Response: 0.36

Request: What does the record list as Kd for FC(F)(F)c1c[nH]c2ncc(-c3cn(C45CC(N6CCOCC6)(C4)C5)c(C4CC4)n3)cc12 [Example 18] ?
Response: 1.9

Request: What does the record list as Kd for CN1CCN(C23CC(n4cc(-c5cnc(N)c(OC(F)(F)F)c5)nc4C4CC4)(C2)C3)CC1=O [Example 22] ?
Response: 9.7

Request: What does the record list as Kd for c1cc2ncc(-c3cn(C45CC(N6CCOCC6)(C4)C5)c(C4CC4)n3)cc2[nH]1 [Example 20] ?
Response: 7500

Request: What does the record list as Kd for Nc1ncc(-c2cn(C34CC(N5CCN(CCF)CC5)(C3)C4)c(C3CC3)n2)cc1OC(F)(F)F [Example 17] ?
Response: 6.9
